Reported values of IC50 for individual entries
- Study System: mouse TRPM3α2 (mTRPM3) ion channel (Mus musculus (Mouse))
- Sequence (J9SQF3 other isoform, or with tags, fused parts or gaps): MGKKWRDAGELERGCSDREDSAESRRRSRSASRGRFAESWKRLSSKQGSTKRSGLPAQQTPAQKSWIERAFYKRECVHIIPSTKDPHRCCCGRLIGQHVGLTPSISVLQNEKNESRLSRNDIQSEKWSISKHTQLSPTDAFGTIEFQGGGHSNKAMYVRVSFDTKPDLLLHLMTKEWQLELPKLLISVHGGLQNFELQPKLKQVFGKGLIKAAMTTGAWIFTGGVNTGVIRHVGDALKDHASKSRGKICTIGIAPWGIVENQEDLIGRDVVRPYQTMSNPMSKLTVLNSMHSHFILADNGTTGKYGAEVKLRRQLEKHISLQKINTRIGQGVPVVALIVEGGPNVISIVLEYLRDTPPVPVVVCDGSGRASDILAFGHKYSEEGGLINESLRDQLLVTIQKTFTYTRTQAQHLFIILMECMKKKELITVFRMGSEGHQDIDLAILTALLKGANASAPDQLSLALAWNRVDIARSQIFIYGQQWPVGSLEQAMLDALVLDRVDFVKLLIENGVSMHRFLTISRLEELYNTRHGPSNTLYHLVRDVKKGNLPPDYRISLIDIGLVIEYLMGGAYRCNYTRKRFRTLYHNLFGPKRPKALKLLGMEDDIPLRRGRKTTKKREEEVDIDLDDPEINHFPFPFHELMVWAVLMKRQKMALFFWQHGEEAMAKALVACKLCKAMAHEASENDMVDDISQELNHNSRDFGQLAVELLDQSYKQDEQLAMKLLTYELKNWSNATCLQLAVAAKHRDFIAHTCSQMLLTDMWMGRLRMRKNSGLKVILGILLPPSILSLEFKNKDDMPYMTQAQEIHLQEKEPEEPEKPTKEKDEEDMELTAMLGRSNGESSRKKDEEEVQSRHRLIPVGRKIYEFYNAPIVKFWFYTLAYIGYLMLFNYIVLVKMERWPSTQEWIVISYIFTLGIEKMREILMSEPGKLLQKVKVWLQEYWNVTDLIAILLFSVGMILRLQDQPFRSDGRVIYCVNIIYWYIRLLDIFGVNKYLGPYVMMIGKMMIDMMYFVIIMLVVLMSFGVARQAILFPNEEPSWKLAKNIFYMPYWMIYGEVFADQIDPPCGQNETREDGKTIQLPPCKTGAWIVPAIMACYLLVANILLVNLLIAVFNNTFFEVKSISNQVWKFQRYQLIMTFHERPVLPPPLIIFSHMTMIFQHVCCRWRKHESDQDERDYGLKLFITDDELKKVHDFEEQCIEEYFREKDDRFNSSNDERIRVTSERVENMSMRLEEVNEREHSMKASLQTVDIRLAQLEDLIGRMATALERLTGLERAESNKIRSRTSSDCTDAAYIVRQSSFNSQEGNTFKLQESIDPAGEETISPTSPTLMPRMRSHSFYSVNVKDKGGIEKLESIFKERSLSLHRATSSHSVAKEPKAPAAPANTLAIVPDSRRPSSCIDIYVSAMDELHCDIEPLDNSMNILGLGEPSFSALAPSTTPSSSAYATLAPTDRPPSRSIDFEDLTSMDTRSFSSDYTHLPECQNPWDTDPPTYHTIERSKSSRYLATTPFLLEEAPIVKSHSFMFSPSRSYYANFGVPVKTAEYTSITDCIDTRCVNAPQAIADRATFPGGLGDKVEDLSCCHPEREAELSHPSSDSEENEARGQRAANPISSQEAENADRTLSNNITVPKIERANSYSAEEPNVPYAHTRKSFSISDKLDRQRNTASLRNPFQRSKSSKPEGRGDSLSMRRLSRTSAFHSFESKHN
- Experiment: TRPM3 ion channel driven Ca2+ uptake, Fluo-4 AM assay, mTRPM3alpha2 overexpressing flip-in HEK293 cells stimulated with pregnenolone sulfate
- Type: cell-based
- Settings: PS (50 μM) stimulated, cpds. 400-499

{"Molecule": "Cc1oc2ccc(OCc3ccccn3)cc2c1C(=O)NC1(C(N)=O)CCC1 [compound 472]", "IC50": "< 1000 nM"}

Note to self: IC50 recorded for Cc1ncc(COc2ccc3oc(C)c(C(=O)NC(C)(C)C(N)=O)c3c2)s1 [compound 439] was < 1000 nM

Note to self: IC50 recorded for COc1ncccc1COc1ccc2oc(C)c(C(=O)NC3(C(N)=O)CCC3)c2c1 [compound 474] was < 1000 nM

Note to self: IC50 recorded for Cc1oc2ccc(OCc3ccccn3)cc2c1C(=O)NC(C)(C)C(N)=O [compound 442] was < 1000 nM

====

Reported values of pIC50 for individual entries
- Study System: mouse TRPM3α2 (mTRPM3) ion channel (Mus musculus (Mouse))
- Experiment: TRPM3 ion channel driven Ca2+ uptake, Fluo-4 AM assay, mTRPM3alpha2 overexpressing flip-in HEK293 cells stimulated with pregnenolone sulfate
- Assay type: cell-based
- Settings: PS (50 μM) stimulated, cpds. 500-599
pIC50: −log10 of the molar value.

Completed entries (count: 3):
{"Compound": "Cc1ncsc1COc1ccc2oc(C)c(C(=O)NCC(C)(F)F)c2c1", "pIC50": "> 6.00"}
{"Compound": "Cc1ncc(COc2ccc3oc(C)c(C(=O)NC4(CO)CCNC4)c3c2)s1 (single isomer, unassigned) [530-En 1]", "pIC50": "4.70 to 6.00"}
{"Compound": "Cc1ncsc1COc1cc(F)c2oc(C)c(C(=O)NC3(C(N)=O)COC3)c2c1", "pIC50": "> 6.00"}

Note to self: pIC50 recorded for Cc1csc(COc2ccc3oc(C)c(C(=O)NC4CCNCC4(F)F)c3c2)n1 (single isomer, unassigned) [cpd 552-En 2] was 4.70 to 6.00

Note to self: pIC50 recorded for Cc1coc(COc2ccc3oc(C)c(C(=O)NC4CCNCC4(F)F)c3c2)n1 (single isomer, unassigned) [cpd 551-En 1] was > 6.00

Note to self: pIC50 recorded for COc1ncccc1COc1ccc2oc(C)c(C(=O)NC3CCNCC3(F)F)c2c1 (single isomer, unassigned) [cpd 565-En 1] was > 6.00

Note to self: pIC50 recorded for Cc1oc2ccc(OCc3nccs3)cc2c1C(=O)NC1CCNCC1(F)F (single isomer, unassigned) [cpd 560-En 1] was > 6.00

Note to self: pIC50 recorded for Cc1ncsc1COc1ccc2oc(C)c(C(=O)NC3CCNCC3(F)F)c2c1F (single isomer, unassigned) was > 6.00

====

- Study System: mouse TRPM3α2 (mTRPM3) ion channel (Mus musculus (Mouse))
- Experiment: TRPM3 ion channel driven Ca2+ uptake, Fluo-4 AM assay, mTRPM3alpha2 overexpressing flip-in HEK293 cells stimulated with pregnenolone sulfate
- Format: cell-based
- Settings: PS (50 μM) stimulated, cpds. 500-599
pIC50: −log10 of the molar value.
Reported values of pIC50 for individual entries

Completed entries (count: 3):
{"Molecule": "COc1cccc(COc2ccc3oc(C)c(C(=O)NC4CCNCC4(F)F)c3c2)n1 (single isomer, unassigned) [cpd 570-En 2]", "Study System": "mouse TRPM3α2 (mTRPM3) ion channel (Mus musculus (Mouse))", "Observed Measurement": "4.70 to 6.00"}
{"Molecule": "Cc1oc2ccc(OCc3ccnn3C)cc2c1C(=O)NC1CCNCC1(F)F (single isomer, unassigned)", "Study System": "mouse TRPM3α2 (mTRPM3) ion channel (Mus musculus (Mouse))", "Observed Measurement": "> 6.00"}
{"Molecule": "Cc1ncsc1COc1ccc2oc(C)c(C(=O)NCCC(F)F)c2c1", "Study System": "mouse TRPM3α2 (mTRPM3) ion channel (Mus musculus (Mouse))", "Observed Measurement": "> 6.00"}

Note to self: pIC50 recorded for Cc1nccc(COc2ccc3oc(C)c(C(=O)NC4CCNCC4(F)F)c3c2)n1 (single isomer, unassigned) [cpd 548-En 2] was < 4.70

Note to self: pIC50 recorded for Cc1oc2ccc(OCc3ccccn3)cc2c1C(=O)NC1(CO)COC1 was > 6.00

Note to self: pIC50 recorded for Cc1oc2ccc(OCc3ncccn3)cc2c1C(=O)NC1CCNCC1(F)F (single isomer, unassigned) [cpd 559-En 1] was 4.70 to 6.00

Note to self: pIC50 recorded for Cc1oc2ccc(OCc3cccnc3O)cc2c1C(=O)NC1(CO)CCOC1 (single isomer, unassigned) was > 6.00
